- assay-procedure: small-molecule microarray binders of probe aXIP, primary screen, biochemical, NeuroSMM set, 635/667 nm fluorescence (AID 1119);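 also: probe is the protein aXip251-270 applied at 1 µg/mL to compound-printed slides; binding of probe to printed compounds measured as 667 nm fluorescence plus signal to noise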
- assay-context: higher = more signal, called active from +8 up or from −8 down

{"columns": ["compound", "composite Z-score"],
 "data": [
  ["CCCCC=C[C@@H](NC(=O)c1cccs1)c1ccccc1", -0.544],
  ["C=CC[C@@]1(C(=O)N2CCOCC2)N=C(c2ccc(OCCCO)cc2)O[C@@H]1c1ccccc1N=[N+]=[N-]", -0.885],
  ["O=C1C2C=CC(C(O)c3ccc(F)cc3)N(Nc3ccccc3)C2C(=O)N1c1ccccc1 (stereo not drawn)", 0.121],
  ["COCCOC(=O)N1C(=O)[C@@]2(c3cc(C#CCNC(N)=O)ccc31)[C@H](c1ccc(O)cc1)N1[C@H](c3ccccc3)[C@H](c3ccccc3)OC(=O)[C@H]1[C@@H]2C(=O)Nc1nc2ccccc2s1", -0.162],
  ["CC(C)N1C(=O)[C@@]2(c3ccc([N+](=O)[O-])cc3)CC(=O)N(CC34CC5CC(CC(C5)C3)C4)[C@@H]2c2ccc(CO)cc21", -0.0775],
  ["Cc1ccc(S[C@]2(C(=O)NC3CC3)CC(=O)N(C3CCCCC3)[C@@H]2c2ccc(CO)cc2I)cc1", -0.186],
  ["COc1ccc(C#Cc2ccc3c(c2)[C@]2(C(=O)N3)[C@H](C(=O)NC[C@H](O)c3ccccc3)[C@H]3C(=O)O[C@H](c4ccccc4)[C@H](c4ccccc4)N3[C@@H]2c2ccccc2OCCO)cc1", 0.29],
  ["[N-]=[N+]=NCc1ccccc1C[C@]1(C(=O)NCCN2CCOCC2)N=C(c2ccc(OCCCO)cc2)O[C@H]1c1ccccc1N=[N+]=[N-]", 0.255],
  ["CC(C)CNC(=O)[C@@]1(c2ccc([N+](=O)[O-])cc2)CC(=O)N(CC23CC4CC(CC(C4)C2)C3)[C@@H]1c1ccc(CO)cc1I", 0.493],
  ["COc1ccc(NN2C(C(O)c3ccc(OC)c(OCc4ccccc4)c3)C=CC3C(=O)N(C4CCCCC4)C(=O)C32)cc1 (stereo not drawn)", 0.745],
  ["Cc1c(NC(=O)CC#N)c(=O)n(-c2ccccc2)n1C", 0.676],
  ["CCCCC(O)C1C=CC2C(=O)N(C3CCCCC3)C(=O)C2N1Nc1ccc(OC)cc1 (stereo not drawn)", 0.258],
  ["CCOC(=O)C[C@H]1[C@H](OC(=O)c2ccc(-c3ccccc3)cc2)[C@@H](NC(=O)Cc2ccc(OC)cc2)c2cc(OCCCO)ccc2N1C(=O)c1ccc2ccccc2n1", -1.15],
  ["COC(=O)C(CC#Cc1ccc2c(c1)[C@]1(C(=O)N2)[C@H](C(=O)NC[C@H](O)c2ccccc2)[C@H]2C(=O)O[C@H](c3ccccc3)[C@H](c3ccccc3)N2[C@@H]1c1ccc(OCCO)cc1)C(=O)OC", 2.12],
  ["COC(=O)c1c(CC[C@@H](CO)NC(=O)N[C@@H](Cc2ccccc2)Cn2cc(C3(O)CCCCC3)nn2)oc(C(C)=O)c1C(=O)OC", -0.0293],
  ["COCCOC(=O)N1C(=O)[C@@]2(c3cc(C#CCCO)ccc31)[C@H](C(=O)NC[C@H](O)c1ccccc1)[C@H]1C(=O)O[C@H](c3ccccc3)[C@H](c3ccccc3)N1[C@@H]2c1ccc(O)cc1", -0.302],
  ["O=C1O[C@@H](c2ccccc2)[C@@H](c2ccccc2)N2[C@@H](c3ccccc3OCCO)[C@]3(C(=O)Nc4ccc(C#CC5(O)CCCCCC5)cc43)[C@@H](C(=O)Nc3nc4ccccc4s3)[C@H]12", -0.0544],
  ["O=C(CS)NCCCCCCNC(=O)[C@@H]1C[C@@H]2C(=O)N3CCC[C@H]3C(=O)N2[C@@H]1c1ccc(O)cc1", 3.04],
  ["C=C[C@@H](COC(C)=O)N(Cc1ccccc1[N+](=O)[O-])S(=O)(=O)c1ccc(Br)cc1", 1.55],
  ["Cc1cc(C)c(C(O)C2C=CC3C(=O)N(C)C(=O)C3N2Nc2ccccc2)c(C)c1 (stereo not drawn)", 2.43],
  ["O=c1oc(-c2ccccc2)nc2cc(Br)ccc12", -0.12],
  ["CCN(CC)c1ccc(N2CC=CC34O[C@@H]5/C=C\\CCCOC(=O)C5[C@H]3C(=O)N(C(CO)C(C)C)[C@@H]4C2=O)cc1 (stereo partly drawn)", 0.0855],
  ["CC(=O)NCCCC[C@@H]1NC(=O)[C@@H]2C[C@H](C(=O)NCCCCN(C)C)[C@H](c3ccc(O)cc3)N2C1=O", 0.48],
  ["CCCCCN1CC=CC23O[C@@H]4/C=C\\CCC(C)OC(=O)C4[C@H]2C(=O)N(CCCCCO)[C@@H]3C1=O (stereo partly drawn)", -0.127],
  ["Cc1ccc(S[C@]2(C(=O)NCc3ccccc3)CC(=O)N(Cc3ccccc3Cl)[C@@H]2c2ccc(CO)cc2I)cc1", -0.422],
  ["CC(C)C[C@@H]1NC(=O)[C@@H]2C[C@H](C(=O)NCCCCCC[N+](C)(C)C)[C@H](c3ccc(O)cc3)N2C1=O", 0.729],
  ["CN1C(=O)C2C(C1=O)C1C=C(CCCO)C2C(c2cccs2)N1C (stereo not drawn)", 0.654],
  ["COc1ccc(C(=O)Nc2cccc(CN3C(=O)[C@]4(O[C@H](CC(=O)N5CCC[C@H]5CO)[C@@H]([Si](C)(C)c5ccc(OC)cc5)[C@@H]4C)c4ccccc43)c2)cc1", 0.535]
]}
